Data provenance: patent US20220162314A1

tested target: T1, Recombinant human CD8ab protein (extracellular domains of CD8a and CD8b with leucine zippers and tags) (human, UniProt P01732 22-182; P10966 22-170)
T1 construct: extracellular domain; Secreted from HEK293 cells; also called recombinant CD8ab; soluble CD8ab antigen; not shown: acidic leucine zipper; 8x Histidine tag; basic leucine zipper; Strep-tag II
T1 sequence (P01732 22-182, chain 1 of 2): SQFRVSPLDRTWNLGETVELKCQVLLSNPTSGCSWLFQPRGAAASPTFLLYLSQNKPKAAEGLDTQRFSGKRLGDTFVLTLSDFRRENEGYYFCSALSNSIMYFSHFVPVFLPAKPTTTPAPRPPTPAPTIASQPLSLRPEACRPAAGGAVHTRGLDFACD
T1 sequence (P10966 22-170, chain 2 of 2): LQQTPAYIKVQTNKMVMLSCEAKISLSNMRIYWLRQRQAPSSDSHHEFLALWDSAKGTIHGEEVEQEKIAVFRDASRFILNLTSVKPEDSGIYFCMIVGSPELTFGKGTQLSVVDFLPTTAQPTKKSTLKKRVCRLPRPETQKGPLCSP
protocol notes: ELISA: antigen coated on the plate, antibody titrated, anti-IgG (Fc)-HRP and TMB, A450
measured quantity: EC50 (read off the curve)

Ask: Write down EC50 (read off the curve) measured for item xhCD8v12 (antibody, human IgG1, V domains shown, Improved version based on xhCD8v2) VH: QVQLVQSGAEVKKPGSSVKVSCKASGGTFSSYAISWVRQAPGQGLEWMGGIIPGYATANYAQKFQGRVTITADESTSTAYMELSSLRSEDTAVYYCARDAAGIRLFADWGQGTLVTVSS VL: DIQMTQSPSSLSASVGDRVTITCRASQSIYGALNWYQQKPGKAPKLLIYGASNLQSGVPSRFSGSGSGTDFTLTISSLQPEDFATYYCQSTYTAPWTFGGGTKVEIK
Result: ~0.02 nM

Ask: Write down EC50 (read off the curve) measured for item xhCD8v2 (antibody, human IgG1, V domains shown) VH: QVQLVQSGAEVKKPGSSVKVSCKASGYRFHNFAISWVRQAPGQGLEWMGGIIPGHAKANYAQKFQGRVTITADESTSTAYMELSSLRSEDTAVYYCARDGLGIRLFADWGQGTLVTVSS VL: DIQMTQSPSSLSASVGDRVTITCRASQEIYGALNWYQQKPGKAPKLLIYGATNLQSGVPSRFSGSGSGTDFTLTISSLQPEDFATYYCQDIYDAPWTFGGGTKVEIK
Result: ~0.03 nM

Ask: Write down EC50 (read off the curve) measured for item xhCD8v1 (antibody, V domains shown, Mouse monoclonal antibody against CD8b; also called mouse monoclonal antibody xhCD8v1; xCD8v1) VH: QVHLQQSGPELVKPGASVKMSCKTSGYTFTKYTMHWVKQGHEESLEWIGHFNPNNDETKYNQKFTGKATLTVDKSSTTAYMELRSLTSDDSALYYCARDGLGLRLFADWGQGTLITVSA VL: DIQMTQSPASLSASVGETVTITCGASENIYGALNWYQRKQGKSPQLLIFGATNLADGVSSRFSGSGSDRQYSLKISSLHPDDVATYYCQNILDTPWTFGGGTKLEIK
Result: ~0.05 nM

Ask: Write down EC50 (read off the curve) measured for item xhCD8v7 (antibody, human IgG1, V domains shown) VH: EVQLVESGGGLVQPGRSLRLSCAASGFTFDDYAMHWVRQAPGKGLEWVAVISYDGSNKYYADSVKGRFTISRDNSKNTLYLQMNSLRAEDTAVYYCAKDRIGWYDYDAFDIWGQGTMVTVSS VL: EIVLTQSPATLSVTPGEGATLSCRASHSVGSNLAWYQQKPGQAPRLLIYDASNRATGIPARFSGSGSGTDFTLTISSLEPEDLAVYYCQQRSNWPPTFGQGTRLEIK
Result: ~0.09 nM
